Test system: Saccharomyces cerevisiae
Experiment: protein stability index of tFT-peptide fusion (C-terminal peptide) (PSI (0-1 scale)); higher = more stable (slower turnover)
Conditions: genetic background: wild type; temperature: 30 C
Measured protein stability index, listed per entry.
Form field (numeric): enter value without unit.

Some sequences with recorded protein stability index:
[[record]]
monomer_sequence = "TPPRLLLPAATT"
quantitative_result = 0.724

[[record]]
monomer_sequence = "VAGWDRETGAWG"
quantitative_result = 0.58

[[record]]
monomer_sequence = "VSSPLLFCSIFL"
quantitative_result = 0.675

[[record]]
monomer_sequence = "RTRTGRPKSPLH"
quantitative_result = 0.635

[[record]]
monomer_sequence = "SPKPPPHPPPPA"
quantitative_result = 0.535


Switching to the query record.
Reported protein stability index for HVRARLVVHQRA was 0.631

---

Measured protein stability index, listed per entry.
Test system: Saccharomyces cerevisiae
Experiment: protein stability index of tFT-peptide fusion (C-terminal peptide) (PSI (0-1 scale)); higher = more stable (slower turnover)
Conditions: genetic background: das1 deletion; temperature: 30 C
Form field (numeric): enter value without unit.

Some sequences with recorded protein stability index:
[[record]]
monomer_sequence = "RKRFSYTQTKNK [RSM19 C-terminal 12 aa]"
quantitative_result = 0.678

[[record]]
monomer_sequence = "GSSLITEGVYVI [NSE1 C-terminal 12 aa]"
quantitative_result = 0.686

[[record]]
monomer_sequence = "YKERDLIDRSAY [VTS1 C-terminal 12 aa]"
quantitative_result = 0.681

[[record]]
monomer_sequence = "GAQIISLDEDVF [GIP1 C-terminal 12 aa]"
quantitative_result = 0.715

[[record]]
monomer_sequence = "AVNALNEAMDKL [BNA5 C-terminal 12 aa]"
quantitative_result = 0.677


Switching to the query record.
Given the sequence IKLIDFNETSLT [MCM22 C-terminal 12 aa] and test system Saccharomyces cerevisiae, the measured protein stability index is 0.68

---

Test system: Saccharomyces cerevisiae
Assay: protein stability index of tFT-peptide fusion (C-terminal peptide) (PSI (0-1 scale)); higher = more stable (slower turnover)
Settings: genetic background: doa10 deletion; temperature: 30 C
Recorded protein stability index split into classes low: < 0.2; intermediate: ≥ 0.2 and < 0.3; high: ≥ 0.3

See these solved cases before continuing.
[[record]]
monomer_sequence = "SPSFLVIFTMLL"
classification = "high"

[[record]]
monomer_sequence = "VDSTCLLITLLA"
classification = "intermediate"

[[record]]
monomer_sequence = "VFFCLFVLFLSG"
classification = "intermediate"

[[record]]
monomer_sequence = "FFSLRRAVTVSA"
classification = "low"


Ask: Hi, small favor: classify VVQCRFPTPCVV by its protein stability index when you get a moment.
Result: high

Ask: Hi, small favor: classify PFFCFLLFCFSL by its protein stability index when you get a moment.
Result: high

Ask: Hi, small favor: classify RDPLAPLLLAIP by its protein stability index when you get a moment.
Result: high

Ask: Hi, small favor: classify GDINRNTRYLEK by its protein stability index when you get a moment.
Result: high

Ask: Hi, small favor: classify VSVFSLFLFLRV by its protein stability index when you get a moment.
Result: high

Ask: Hi, small favor: classify RSYAYIIVATVA by its protein stability index when you get a moment.
Result: low

Ask: Hi, small favor: classify FGVLFFVFVFVC by its protein stability index when you get a moment.
Result: low

Ask: Hi, small favor: classify WFLLSLSSFVSS by its protein stability index when you get a moment.
Result: high

Ask: Hi, small favor: classify LSFLALLLFFRI by its protein stability index when you get a moment.
Result: high

Ask: Hi, small favor: classify FSVSYFRLVRLC by its protein stability index when you get a moment.
Result: low

Ask: Hi, small favor: classify WVRLGRSWTTVG by its protein stability index when you get a moment.
Result: intermediate

Ask: Hi, small favor: classify LLLVCYSTFIVA by its protein stability index when you get a moment.
Result: intermediate

Ask: Hi, small favor: classify CVGLYCLFVLLG by its protein stability index when you get a moment.
Result: low

---

Test system: Saccharomyces cerevisiae
Assay: protein stability index of tFT-peptide fusion (C-terminal peptide) (PSI (0-1 scale)); higher = more stable (slower turnover)
Settings: genetic background: wild type; temperature: 30 C
Measured protein stability index, listed per entry.
Form field (numeric): enter value without unit.

[[record]]
monomer_sequence = "FSSEFSSDPTVN [YJL206C C-terminal 12 aa]"
quantitative_result = 0.724

[[record]]
monomer_sequence = "VVVVVPAVVKTR [SSO1 C-terminal 12 aa]"
quantitative_result = 0.522

[[record]]
monomer_sequence = "LSGAPQVTKKQN [POM33 C-terminal 12 aa]"
quantitative_result = 0.674

[[record]]
monomer_sequence = "ESFVECFESFIE [PBI1 C-terminal 12 aa]"
quantitative_result = 0.682


Reported protein stability index for VHLEKKKDEDKK [UBX7 C-terminal 12 aa] was 0.668

Reported protein stability index for GSVPANWNWSSF [PIB2 C-terminal 12 aa] was 0.699

Reported protein stability index for RMLMGTTKRGRF [YAL037W C-terminal 12 aa] was 0.69

---

System: Saccharomyces cerevisiae
Assay: protein stability index of tFT-peptide fusion (C-terminal peptide) (PSI (0-1 scale)); higher = more stable (slower turnover)
Settings: genetic background: wild type; temperature: 30 C
recorded_endpoint: protein stability index

Some sequences with recorded protein stability index:
[[record]]
monomer_sequence = "AWGELGAGVFGL"
study_target = "Saccharomyces cerevisiae"
recorded_endpoint = "protein stability index"
result = 0.68

[[record]]
monomer_sequence = "WGISRSLRPGEV"
study_target = "Saccharomyces cerevisiae"
recorded_endpoint = "protein stability index"
result = 0.739

[[record]]
monomer_sequence = "GKGKETKELIGK"
study_target = "Saccharomyces cerevisiae"
recorded_endpoint = "protein stability index"
result = 0.711

[[record]]
monomer_sequence = "RVESRFSGTDSF"
study_target = "Saccharomyces cerevisiae"
recorded_endpoint = "protein stability index"
result = 0.708

[[record]]
monomer_sequence = "CVCGRFGGELGV"
study_target = "Saccharomyces cerevisiae"
recorded_endpoint = "protein stability index"
result = 0.653


Given the sequence APDRLPLSRCPA and test system Saccharomyces cerevisiae, the measured protein stability index is 0.699

Given the sequence LTDCIHERKGTE and test system Saccharomyces cerevisiae, the measured protein stability index is 0.743

Given the sequence ICYGLHVPARRR and test system Saccharomyces cerevisiae, the measured protein stability index is 0.633

Given the sequence GGRGGVWWVGRV and test system Saccharomyces cerevisiae, the measured protein stability index is 0.675

Given the sequence SVWCRRRRVTNS and test system Saccharomyces cerevisiae, the measured protein stability index is 0.583

Given the sequence FFLPLAYSSGSN and test system Saccharomyces cerevisiae, the measured protein stability index is 0.659

Given the sequence PPSPPPPALSSS and test system Saccharomyces cerevisiae, the measured protein stability index is 0.665

---

Tested on: Saccharomyces cerevisiae
Assay: protein stability index of tFT-peptide fusion (C-terminal peptide) (PSI (0-1 scale)); higher = more stable (slower turnover)
Settings: genetic background: das1 deletion; temperature: 30 C
Entry flag: Met if protein stability index reaches 0.4; Not met if it does not.

See these solved cases before continuing.
[[record]]
monomer_sequence = "FGVSLFLPLSVV"
classification = "Not met"

[[record]]
monomer_sequence = "VFFHFFVCWRFV"
classification = "Not met"

[[record]]
monomer_sequence = "AFCGRRGHQFYN"
classification = "Met"


Ask: Can FFSLMFVFLTVF be said to have protein stability index at or above 0.4?
Result: Not met

Ask: Can LLLIGISFLIFY be said to have protein stability index at or above 0.4?
Result: Not met

Ask: Can FFLKPVPSLFLC be said to have protein stability index at or above 0.4?
Result: Met

Ask: Can TGPVFVSFRLLH be said to have protein stability index at or above 0.4?
Result: Met

Ask: Can VWVAWLGGAILA be said to have protein stability index at or above 0.4?
Result: Not met

Ask: Can RRVLVVPCIWHM be said to have protein stability index at or above 0.4?
Result: Met

Ask: Can LWFRGGYLFFVV be said to have protein stability index at or above 0.4?
Result: Met

---

Test system: Saccharomyces cerevisiae
Experiment: protein stability index of tFT-peptide fusion (C-terminal peptide) (PSI (0-1 scale)); higher = more stable (slower turnover)
Conditions: genetic background: das1 deletion; temperature: 37 C
Measured protein stability index, listed per entry.
Form field (numeric): enter value without unit.

Some sequences with recorded protein stability index:
[[record]]
monomer_sequence = "IYEAFLVFCLCG"
quantitative_result = 0.543

[[record]]
monomer_sequence = "GTMGWYSISRRL"
quantitative_result = 0.746


Switching to the query record.
Reported protein stability index for GLVVWWLSGWLW was 0.428

---

System: Saccharomyces cerevisiae
Experiment: protein stability index of tFT-peptide fusion (C-terminal peptide) (PSI (0-1 scale)); higher = more stable (slower turnover)
Settings: genetic background: wild type; temperature: 37 C
Entry flag: 1 if protein stability index reaches 0.5; -1 if it does not.

[[record]]
monomer_sequence = "SCCLLICIFFIF"
classification = -1

[[record]]
monomer_sequence = "KKKKKKKIKIMS"
classification = -1

[[record]]
monomer_sequence = "LSGIILGWSVSG"
classification = 1


Ask: Can CFPFYVSCLLVL be said to have protein stability index at or above 0.5?
Result: -1

Ask: Can GVVCVLGFALFV be said to have protein stability index at or above 0.5?
Result: -1

Ask: Can GYLFICSWCEGF be said to have protein stability index at or above 0.5?
Result: -1

Ask: Can CTLVVGLFVLVV be said to have protein stability index at or above 0.5?
Result: -1

Attribution: the supplement of paper PMC10724198
